These entries and their values trace back to patent US20230382869A1.

Assay Text: Plasma and Brain Levels after oral dosing
Type: in vivo, mouse
Cond: male, mouse; ratio Cu,brain vs Cu,plasma, 6 mg/kg oral, 1 hr

Compound | Kp uu at 1 h
C[C@H]1c2ccc(F)c(CCC(C)(C)O)c2C[C@H](CO)N1C(=O)Cc1c(F)cccc1Cl [Example 7] | 0.143

* * *

Assay Text: Plasma and Brain Levels after oral dosing
Format: in vivo, mouse
Cond: male, mouse; ratio Cu,brain vs Cu,plasma, 30 mg/kg oral, 1 hr

Smiles Code | Kp uu at 1 h
C[C@H]1c2ccc(F)c(CCC(C)(C)O)c2C[C@H](CO)N1C(=O)Cc1c(F)cccc1Cl | 0.194

* * *

Assay Text: Fraction unbound in vitro (equilibrium dialysis)
Assay type: in vitro ADME
Cond: fraction unbound in plasma, read-out: fu, plasma
Observable: fraction unbound

Smiles Code | Observable | Result Value
C[C@H]1c2ccc(F)c(CCC(C)(C)O)c2C[C@H](CO)N1C(=O)Cc1c(F)cccc1Cl | fraction unbound | 0.0141

* * *

Assay Text: Plasma and Brain Levels after oral dosing
Assay type: in vivo, mouse
Cond: plasma; 3 mg/kg oral, 1 hr post-dose, male mouse, fed; read-out: Plasma con.

Compound | concentration at 1 h
C[C@H]1c2ccc(F)c(CCC(C)(C)O)c2C[C@H](CO)N1C(=O)Cc1c(F)cccc1Cl [Example 7] | 353 nM

* * *

Assay Text: Plasma and Brain Levels after oral dosing
Assay type: in vivo, mouse
Cond: plasma; 10 mg/kg oral, 1 hr post-dose, male mouse, fed; read-out: Plasma con.

Compound | Units Of Measure | concentration at 1 h
C[C@H]1c2ccc(F)c(CCC(C)(C)O)c2C[C@H](CO)N1C(=O)Cc1c(F)cccc1Cl [Example 7] | nM | 1210

* * *

Study Target: human D1 receptor (Homo sapiens (Human))
Assay Text: Human D1 Receptor PAM Assay (cAMP HTRF, potentiator mode)
Assay type: cell-based
Cond: HEK293 cells expressing human D1; with EC20 dopamine (12 nM final); cAMP; listed as 2-(2,6-Dichlorophenyl)-1-[(1S,3R)-3-(hydroxymethyl)-5-[cis-2-(1-hydroxy-1-methyl); read-out: Abs EC50
pEC50: −log10 of the molar value.
# pEC50 values compiled below

Compound | pEC50
C[C@H]1c2cccc([C@@H]3C[C@@H]3C(C)(C)O)c2C[C@H](CO)N1C(=O)Cc1c(Cl)cccc1Cl (relative stereo) [Example 3] | 7.95
C[C@H]1c2cccc([C@@H]3C[C@@H]3C(C)(C)O)c2C[C@H](CO)N1C(=O)Cc1c(Cl)cccc1Cl (relative stereo) [Example 4] | 7.06

* * *

Assay Text: Plasma and Brain Levels after oral dosing
Format: in vivo, mouse
Cond: male, mouse; unbound brain concentration, 3 mg/kg oral, 1 hr; read-out: Cu, brain
Protocol: Example 7, 2-(2-chloro-6-fluoro-phenyl)-1-[(1S,3R)-6-fluoro-3-(hydroxymethyl)-5-(3-hydroxy-3-methyl-butyl)-1-methyl-3,4-dihydro-1H-isoquinolin-2-yl]ethenone, was orally dosed to male mouse from 3 mg/kg to 60 mg/kg in fed condition, and the plasma and brain concentration was determined 1 hr post-dose. […]

Smiles Code | concentration at 1 h (nM)
C[C@H]1c2ccc(F)c(CCC(C)(C)O)c2C[C@H](CO)N1C(=O)Cc1c(F)cccc1Cl | 0.448

* * *

Assay Text: Plasma and Brain Levels after oral dosing
Format: in vivo, mouse
Cond: brain; 60 mg/kg oral, 1 hr post-dose, male mouse, fed; read-out: Brain con.

Compound | Units Of Measure | concentration at 1 h
C[C@H]1c2ccc(F)c(CCC(C)(C)O)c2C[C@H](CO)N1C(=O)Cc1c(F)cccc1Cl [Example 7] | nM | 1290

* * *

Assay Text: Plasma and Brain Levels after oral dosing
Type: in vivo, mouse
Cond: male, mouse; unbound brain concentration, 6 mg/kg oral, 1 hr; read-out: Cu, brain

Smiles Code | concentration at 1 h
C[C@H]1c2ccc(F)c(CCC(C)(C)O)c2C[C@H](CO)N1C(=O)Cc1c(F)cccc1Cl | 1.12 nM

* * *

Assay Text: Fraction unbound in vitro (equilibrium dialysis)
Type: in vitro ADME
Cond: fraction unbound in brain, read-out: fu, brain

Smiles Code | fraction unbound
C[C@H]1c2ccc(F)c(CCC(C)(C)O)c2C[C@H](CO)N1C(=O)Cc1c(F)cccc1Cl | 0.0249

* * *

Assay Text: Plasma and Brain Levels after oral dosing
Type: in vivo, mouse
Cond: male, mouse; unbound plasma concentration, 30 mg/kg oral, 1 hr; read-out: Cu, plasma

Compound | concentration at 1 h
C[C@H]1c2ccc(F)c(CCC(C)(C)O)c2C[C@H](CO)N1C(=O)Cc1c(F)cccc1Cl [Example 7] | 70.1 nM

* * *

# EC50 values compiled below
Study Target: human D1 receptor (Homo sapiens (Human), UniProt P21728)
Sequence (P21728 whole entry): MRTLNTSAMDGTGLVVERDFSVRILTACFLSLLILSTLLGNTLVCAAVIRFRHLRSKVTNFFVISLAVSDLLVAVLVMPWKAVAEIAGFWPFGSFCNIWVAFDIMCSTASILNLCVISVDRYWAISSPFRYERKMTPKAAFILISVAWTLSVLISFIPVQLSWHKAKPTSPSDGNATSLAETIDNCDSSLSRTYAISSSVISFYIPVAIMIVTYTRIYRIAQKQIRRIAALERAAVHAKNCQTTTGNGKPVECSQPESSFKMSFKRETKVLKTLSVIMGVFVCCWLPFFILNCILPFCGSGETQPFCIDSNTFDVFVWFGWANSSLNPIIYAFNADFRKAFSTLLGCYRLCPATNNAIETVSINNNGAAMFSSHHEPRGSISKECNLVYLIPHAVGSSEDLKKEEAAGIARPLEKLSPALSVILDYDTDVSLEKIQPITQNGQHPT
Assay Text: Human D1 Receptor PAM Assay (cAMP HTRF, potentiator mode)
Assay type: cell-based
Cond: HEK293 cells expressing human D1; with EC20 dopamine (12 nM final); cAMP; listed as 2-(2-chloro-6-fluoro-phenyl)-1-[(1R,3R)-6-fluoro-3-(hydroxymethyl)-5-[trans-2-(1); read-out: Abs EC50

Compound | EC50
C[C@@H]1c2ccc(F)c([C@@H]3C[C@H]3C(C)(C)O)c2C[C@H](CO)N1C(=O)Cc1c(F)cccc1Cl (relative stereo) [Example 9] | 0.0132 µM
C[C@@H]1c2ccc(F)c([C@@H]3C[C@H]3C(C)(C)O)c2C[C@H](CO)N1C(=O)Cc1c(F)cccc1Cl (relative stereo) [Example 8] | 0.0336 µM

* * *

Assay Text: Plasma and Brain Levels after oral dosing
Format: in vivo, mouse
Cond: male, mouse; ratio Cu,brain vs Cu,plasma, 3 mg/kg oral, 1 hr
Method: Example 7, 2-(2-chloro-6-fluoro-phenyl)-1-[(1S,3R)-6-fluoro-3-(hydroxymethyl)-5-(3-hydroxy-3-methyl-butyl)-1-methyl-3,4-dihydro-1H-isoquinolin-2-yl]ethenone, was orally dosed to male mouse from 3 mg/kg to 60 mg/kg in fed condition, and the plasma and brain concentration was determined 1 hr post-dose. […]
Observable: Kp uu at 1 h

Compound | Observable | Result Value
C[C@H]1c2ccc(F)c(CCC(C)(C)O)c2C[C@H](CO)N1C(=O)Cc1c(F)cccc1Cl [Example 7] | Kp uu at 1 h | 0.126

* * *

Assay Text: Plasma and Brain Levels after oral dosing
Format: in vivo, mouse
Cond: brain; 3 mg/kg oral, 1 hr post-dose, male mouse, fed; read-out: Brain con.

Smiles Code | concentration at 1 h (nM)
C[C@H]1c2ccc(F)c(CCC(C)(C)O)c2C[C@H](CO)N1C(=O)Cc1c(F)cccc1Cl | 18

* * *

Assay Text: Plasma and Brain Levels after oral dosing
Type: in vivo, mouse
Cond: male, mouse; unbound plasma concentration, 3 mg/kg oral, 1 hr; read-out: Cu, plasma

Smiles Code | Units Of Measure | concentration at 1 h
C[C@H]1c2ccc(F)c(CCC(C)(C)O)c2C[C@H](CO)N1C(=O)Cc1c(F)cccc1Cl | nM | 4.97

* * *

Study Target: human D1 receptor (Homo sapiens (Human), UniProt P21728)
Assay Text: Human D1 Receptor PAM Assay (cAMP HTRF, potentiator mode)
Format: cell-based
Cond: HEK293 cells expressing human D1; with EC20 dopamine (12 nM final); cAMP; read-out: Abs EC50
Observable: EC50

Smiles Code | Study Target | Observable | Result Value
C[C@H]1c2ccc(F)c(CCC(C)(C)O)c2C[C@H](CO)N1C(=O)Cc1c(F)cccc1Cl | human D1 receptor (Homo sapiens (Human), UniProt P21728) | EC50 | 10.2 nM

* * *

Assay Text: Plasma and Brain Levels after oral dosing
Assay type: in vivo, mouse
Cond: plasma; 30 mg/kg oral, 1 hr post-dose, male mouse, fed; read-out: Plasma con.

Molecule | concentration at 1 h
C[C@H]1c2ccc(F)c(CCC(C)(C)O)c2C[C@H](CO)N1C(=O)Cc1c(F)cccc1Cl [Example 7] | 4.98 µM

* * *

Assay Text: Passive permeability in MDCKII cell line (Papp)
Type: in vitro ADME
Cond: dog, MDCK

Compound | Papp / ×10⁻⁶ cm/s
C[C@H]1c2ccc(F)c(CCC(C)(C)O)c2C[C@H](CO)N1C(=O)Cc1c(F)cccc1Cl [Example 7] | 37.9

* * *

Assay Text: Plasma and Brain Levels after oral dosing
Type: in vivo, mouse
Cond: brain; 10 mg/kg oral, 1 hr post-dose, male mouse, fed; read-out: Brain con.

Smiles Code | Units Of Measure | concentration at 1 h
C[C@H]1c2ccc(F)c(CCC(C)(C)O)c2C[C@H](CO)N1C(=O)Cc1c(F)cccc1Cl | nM | 84.9

* * *

Assay Text: Plasma and Brain Levels after oral dosing
Type: in vivo, mouse
Cond: male, mouse; unbound brain concentration, 10 mg/kg oral, 1 hr; read-out: Cu, brain
Observable: concentration at 1 h

Smiles Code | Result Value
C[C@H]1c2ccc(F)c(CCC(C)(C)O)c2C[C@H](CO)N1C(=O)Cc1c(F)cccc1Cl | 2.11 nM

* * *

Tested on: CYP3A
Assay Text: Intrinsic clearance CLint,CYP3A,liver
Assay type: in vitro ADME
Cond: human

Smiles Code | Units Of Measure | microsomal CLint
C[C@H]1c2ccc(F)c(CCC(C)(C)O)c2C[C@H](CO)N1C(=O)Cc1c(F)cccc1Cl | µL/min/mg | 25.5
